Please respond with reported IgM binding (optical density) for every item in the list.
Test system: serum IgM anti-estrogen antibodies
Procedure details: ELISA binding of IgM estrogen antibodies to different hormones in solid phase
Set-up: species or system human
Cond: sample 1; hormone in solid phase; 405 nm

Some compounds with known IgM binding (optical density) results, for comparison:
• CC(=O)[C@@]1(O)CC[C@H]2[C@@H]3CCC4=CC(=O)CC[C@]4(C)[C@H]3CC[C@@]21C [HP, 17-α-hydroxy-progesterone] = 0.34
• C[C@]12CCC(=O)C=C1CC[C@@H]1[C@@H]2[C@@H](O)C[C@@]2(C)[C@H]1CC[C@]2(O)C(=O)CO [HC, Hydrocortisone] = 0.16
• CC(=O)[C@H]1CC[C@H]2[C@@H]3CCC4=CC(=O)CC[C@]4(C)[C@H]3CC[C@]12C = 0.26

Switching to the query record.
Recorded IgM binding (optical density) of CC(C)CCC[C@@H](C)[C@H]1CC[C@H]2[C@@H]3CC=C4C[C@@H](O)CC[C@]4(C)[C@H]3CC[C@]12C , please.
0.13
